protocol_details: In vivo pharmacokinetics in infected mice (plasma, LC-MS/MS)
Design: species or system BALB/c mice
condition_info: BALB/c, mouse, plasma, po, 150 mg/kg, Group 3 quartet BTZ043 37.5/SQ109 25/MXF 200/PZA 150 mg/kg oral; steady state, infected mice; read-out: Cmax in Quartet
readout: Cmax (ng/mL)
Quick note: give the figure in ng/mL, leave out the unit.

Q) I'd like to know its Cmax. The compound in question is CC(C)=CCC/C(C)=C/CNCCNC1C2CC3CC(C2)CC1C3 (stereo not drawn) [SQ109]
A) 500

Q) For NC(=O)c1cnccn1 [Pyrazinamide] then?
A) 42000

Q) Another compound: COc1c(N2C[C@@H]3CCCN[C@@H]3C2)c(F)cc2c(=O)c(C(=O)O)cn(C3CC3)c12 [Moxifloxacin]
A) 3900

----------
protocol_details: In vivo pharmacokinetics in infected mice (plasma, LC-MS/MS)
Parameters: species or system BALB/c mice
condition_info: BALB/c, mouse, plasma, po, 100 mg/kg, Ref. regimen triplet INH 30/RIF 10/EMB 100 mg/kg oral; steady state, infected mice; read-out: Cmax in Triplet
Kindly state Cmax for each of the entries shown.

Q) Fill in: Cmax of NNC(=O)c1ccncc1 is ___
A) 10800 ng/mL

Q) Now the compound CC[C@@H](CO)NCCN[C@@H](CC)CO
A) 2200 ng/mL

Q) Also need CO[C@H]1/C=C/O[C@@]2(C)Oc3c(C)c(O)c4c(O)c(c(/C=N/N5CCN(C)CC5)c(O)c4c3C2=O)NC(=O)/C(C)=C\C=C\[C@H](C)[C@H](O)[C@@H](C)[C@@H](O)[C@@H](C)[C@H](OC(C)=O)[C@@H]1C , thanks.
A) 4900 ng/mL

----------
protocol_details: In vivo pharmacokinetics in infected mice (plasma, LC-MS/MS)
Design: species or system BALB/c mice
condition_info: BALB/c, mouse, plasma, po, 25 mg/kg, Group 6 triplet BTZ043 37.5/THI 800/SQ109 25 mg/kg oral; steady state, infected mice; read-out: AUC0-24 in Triplet
readout: AUC(0-t) (ng·h/mL)
Please reply with the bare figure in ng·h/mL and do not write the unit itself.

Q) Could you tell me which AUC(0-t) is on file for CC(=O)Nc1ccc(/C=N/NC(N)=S)cc1 ?
A) 87000

Q) Subsequent entry: C[C@H]1COC2(CCN(c3nc(=O)c4cc(C(F)(F)F)cc([N+](=O)[O-])c4s3)CC2)O1
A) 15000

Q) How about this compound: CC(C)=CCC/C(C)=C/CNCCNC1C2CC3CC(C2)CC1C3 (stereo not drawn)
A) 3100

----------
Hi there, I'd appreciate the recorded Cmax for every entry that follows.
protocol_details: In vivo pharmacokinetics in infected mice (plasma, LC-MS/MS)
Design: species or system BALB/c mice
condition_info: BALB/c, mouse, plasma, po, 150 mg/kg, Group 5 quartet EMB 100/BDQ 25/SQ109 25/PZA 150 mg/kg oral; steady state, infected mice; read-out: Cmax in Quartet
// note: answer is a bare numeric in ng/mL

Q) Look up Cmax for this compound: CC(C)=CCC/C(C)=C/CNCCNC1C2CC3CC(C2)CC1C3 (stereo not shown)
A) 2700

Q) Now the compound CC[C@@H](CO)NCCN[C@@H](CC)CO
A) 1200

Q) Entry to check: NC(=O)c1cnccn1 [Pyrazinamide]
A) 67200

Q) Likewise for COc1nc2ccc(Br)cc2cc1[C@@H](c1ccccc1)[C@@](O)(CCN(C)C)c1cccc2ccccc12 ?
A) 1700

All figures here come from paper PMC4538536.
